# Method notes: chemical genetic growth profiling, strain panel (AID 1159580);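 further: tested at 20 µM; growth read once vehicle control cultures reached saturation at 30 °C; 1 = growth at the plate median or of vehicle wells; lower values mean less growth of the strain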
# Condition details: S. cerevisiae deletion strains, growth OD, locus YIL125W, strain kgd1, active compounds read low
The campaign covered roughly 5,500 compounds. About 2,000 (36%) were called active. About 18% were inconclusive and are not listed. The list shows a part of the results.
Below: a set of entries, each annotated with reported normalized growth.
Note: the reply should be a number with no unit written.

Worked cases, answers included:
CN(C)CC/C=C1/c2ccccc2COc2ccccc21 ... 1.01
CC[N+]1(C)CCCC(OC(=O)C(O)(c2ccccc2)c2ccccc2)C1 (configuration not stated) ... 1
CC(=O)O[C@H]1C[C@@]2(C)[C@H](c3ccoc3)OC(=O)[C@H]3O[C@]32[C@@]2(C)C1[C@]1(C)C(C[C@H]2OC(C)=O)C(C)(C)[C@H](OC(C)=O)C[C@@H]1OC(C)=O (some centres not stated) ... 0.983
N[C@@H]1CONC1=O ... 1.02
CCC1C2CC3C4N(C)c5ccccc5C45CC(C2C5OC(C)=O)N3C1OC(C)=O (configuration not stated) ... 1.03
CC(=O)O[C@@H]1CC2C(C)(C)C(=O)CC[C@]2(C)C2CC[C@@]3(C)[C@H](c4ccoc4)OC(=O)C4OC43[C@@]21C (some centres not stated) ... 0.998
Nc1ccc(C(=O)O)c(O)c1 ... 1
CN(C)CCC=C1c2ccccc2C=Cc2ccccc21 ... 1.02

The measured normalized growth associated with CC(=O)Nc1cccc(O)c1 reads 0.994

The measured normalized growth associated with COc1ccc(-c2cc(=O)c3cc(OC)ccc3o2)cc1 reads 0.99

The measured normalized growth associated with O=c1c(-c2cc(O)c(O)c(O)c2)coc2cc(O)c(O)c(O)c12 reads 1

The measured normalized growth associated with C=CCCCCCCCCCCCC(O)CC(O)CO (configuration not stated) reads 0.977

The measured normalized growth associated with CC(=O)O[C@H]1C[C@@H](O)C(C)(C)C2C[C@@H](OC(C)=O)[C@]3(C)C(CC[C@@]4(C)[C@H](c5ccoc5)OC(=O)C5OC543)[C@]21C (some centres not stated) reads 0.983

The measured normalized growth associated with Nc1ccc(C(=O)O)c(O)c1 (tested in a mixture with another compound) reads 0.988

The measured normalized growth associated with CN(C)CCC=C1c2ccccc2CCc2ccccc21 reads 0.997

The measured normalized growth associated with CC(=O)Nc1ccc(OC(=O)c2ccccc2O)cc1 reads 0.95

The measured normalized growth associated with COc1ccc2cc3[n+](cc2c1OC)CCc1cc2c(cc1-3)OCO2 reads 0.966

The measured normalized growth associated with CC(=O)OC1CC2C(C)(C)CCCC2(C)C2CCC3(C)C(c4ccoc4)OC(=O)C4OC43C12C (configuration not stated) reads 1.01

The measured normalized growth associated with CNCCC=C1c2ccccc2CCc2ccccc21 reads 1.01

The measured normalized growth associated with COc1c2c(cc3c1OCO3)CC[N+](C)=C2 reads 0.995

The measured normalized growth associated with CC(C)(Oc1ccc(Cl)cc1)C(=O)O reads 0.98

The measured normalized growth associated with COc1ccc(-c2coc3cc(O)cc(O)c3c2=O)cc1 reads 0.697

###

# Method notes: chemical genetic growth profiling, strain panel (AID 1159580)
# Condition details: S. cerevisiae deletion strains, growth OD, locus YLR357W, strain rsc2, active compounds read low
Out of some 5,500 compounds screened, about 2,000 (36%) were called active. Another 18% or so got no clear call; they are omitted. The list shows a part of the results.
Class assignment keyed on normalized growth, ranges bucket 1 (below 0.9), bucket 2 (0.9 to below 1), bucket 3 (1 or more)

CC(C)(O)[C@@H]1CC[C@](C)([C@H]2[C@@H](O)C[C@@]3(C)C4C[C@H](O[C@@H]5O[C@H](CO)[C@@H](O)[C@H](O)[C@H]5O)C5C(C)(C)[C@@H](O[C@@H]6OC[C@@H](O)[C@H](O)[C@H]6O)CC[C@@]56C[C@@]46CC[C@]23C)O1 (stereo partly specified) ... bucket 2
O=c1c2ccccc2[se]n1-c1ccccc1 ... bucket 1

Could you tell me which band CC1(C)O[C@@H]2CC3C4C[C@H](F)C5=CC(=O)C=CC5(C)C4C(O)CC3(C)[C@]2(C(=O)CO)O1 (stereo partly specified) belongs to?
bucket 2

Could you tell me which band COc1ccc(-c2cc(=O)c3ccccc3o2)cc1OC belongs to?
bucket 2

Could you tell me which band FC(F)(F)C(Cl)Br (stereo unspecified) belongs to?
bucket 3

Could you tell me which band S=c1ccss1 belongs to?
bucket 1

Could you tell me which band CCCCCCCCCc1ccc(O)cc1 belongs to?
bucket 1

Could you tell me which band COc1ccc(-c2cc(=O)c3ccccc3o2)cc1 belongs to?
bucket 3

Could you tell me which band CCCCCCc1ccc(O)cc1O belongs to?
bucket 3

Could you tell me which band CCCCC1C(=O)N(c2ccccc2)N(c2ccccc2)C1=O belongs to?
bucket 3

Could you tell me which band CCCCCCCCCCCCCCCC[n+]1ccccc1 belongs to?
bucket 1

###

# Method notes: chemical genetic growth profiling, strain panel (AID 1159580)
# Condition details: S. cerevisiae deletion strains, growth OD, locus YMR277W, strain FCP1, active compounds read low
Among all 5,500 compounds or so, about 2,000 (36%) were called active. Another 18% or so got no clear call; they are omitted. Some of the results follow.
Attribute measured: normalized growth
Note: the reply should be a number with no unit written.

Worked cases, answers included:
CCn1nc(C)cc1-c1nnc(Sc2ncc([N+](=O)[O-])s2)n1C ... 0.95
CCC(C)COC(=O)/C=C/c1ccc(N=Cc2ccc(OC)cc2)cc1 (configuration not stated) ... 0.966
Clc1ccccc1N/N=C\Cc1nnnn1-c1ccccc1 ... 0.969
O=C1Nc2ccccc2/C1=N/N=C\c1ccccc1Cl ... 0.972
Cc1nc(-c2ccc(C(F)(F)F)cn2)[nH]c(=O)c1Cl ... 0.893

The measured normalized growth associated with C/C(=N/Nc1nc(C(C)(C)C)cs1)c1ccc(Cl)c(Cl)c1 reads 0.986

The measured normalized growth associated with Cc1csc2ncnc(N/N=C\c3ccccc3Cl)c12 reads 0.966

The measured normalized growth associated with O=C1c2ccccc2O[C@@H](c2ccccc2)[C@@H]1NCc1ccccc1 reads 0.904

The measured normalized growth associated with N/C(CSc1ccc(Cl)cc1)=N/OC(=O)c1ccc(C(F)(F)F)cc1 reads 0.855

The measured normalized growth associated with O=C1Nc2ccccc2/C1=N/N=C\c1cc(Br)cc(Br)c1O reads 0.959

The measured normalized growth associated with Clc1ccc(-c2csc(Nc3ccccc3)n2)s1 reads 0.921

The measured normalized growth associated with CC(O)(CNCc1ccc(Cl)cc1)CSc1ccccc1Cl (configuration not stated) reads 0.99

###

# Method notes: chemical genetic growth profiling, strain panel (AID 1159580);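 further: tested at 20 µM; growth read once vehicle control cultures reached saturation at 30 °C; 1 = growth at the plate median or of vehicle wells; lower values mean less growth of the strain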
# Condition details: S. cerevisiae deletion strains, growth OD, locus YPR111W, strain DBF20, active compounds read low
The whole screen tested about 5,500 compounds, of which about 2,000 (36%) were called active. Not shown: some 18% with an inconclusive outcome. Some of the results follow.
Below: a set of entries, each annotated with reported normalized growth.
Note: the reply should be a number with no unit written.

C/C(=N/Nc1nc(C(C)(C)C)cs1)c1ccc(Cl)c(Cl)c1 ... 0.974
CC(C)c1ccc(-c2cc(=O)c3ccccc3o2)cc1 ... 0.918
CC(C)(C)c1csc(NC(=O)Nc2ccc(Cl)cc2)n1 ... 0.967
O=C(NCc1cccs1)c1csc(Cc2c(Cl)cccc2Cl)n1 ... 0.965

The measured normalized growth associated with O=C(NNC(=O)c1csc(-c2cccs2)n1)c1ccc(C(F)(F)F)cc1 reads 0.974

The measured normalized growth associated with CC(C)(C)c1cc2nc(C(F)(F)F)cc(NNC(=O)c3ccc(Cl)cc3)n2n1 reads 0.976

###

# Method notes: chemical genetic growth profiling, strain panel (AID 1159580);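 further: tested at 20 µM; growth read once vehicle control cultures reached saturation at 30 °C; 1 = growth at the plate median or of vehicle wells; lower values mean less growth of the strain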
# Condition details: S. cerevisiae deletion strains, growth OD, locus YOL012C, strain htz1
About 2,000 (36%) of roughly 5,500 compounds were called active. Roughly 18% stayed inconclusive and do not appear here. Some of the results follow.
Below: a set of entries, each annotated with reported normalized growth.
Note: the reply should be a number with no unit written.

Worked cases, answers included:
COc1ccc(C(=O)/C=C/c2ccccc2)cc1 ... 0.771
O=c1c(-c2ccccc2)coc2cc(O)cc(O)c12 ... 0.305
COc1cccc(-c2cc(=O)c3ccc(OC)cc3o2)c1 ... 0.755
COc1ccc2c(=O)cc(-c3ccccc3OC)oc2c1 ... 0.811

Proceed to the following item.
The measured normalized growth associated with CC(=O)Oc1cc(OC(C)=O)c2c(=O)c(-c3ccccc3)coc2c1 reads 0.735

###

# Method notes: chemical genetic growth profiling, strain panel (AID 1159580);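 further: tested at 20 µM; growth read once vehicle control cultures reached saturation at 30 °C; 1 = growth at the plate median or of vehicle wells; lower values mean less growth of the strain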
# Condition details: S. cerevisiae deletion strains, growth OD, locus YHR205W, strain SCH9, active compounds read low
Hit rate of the full screen: of about 5,500 compounds, about 2,000 (36%) were called active. Roughly 18% stayed inconclusive and do not appear here. The list shows a part of the results.
Below: a set of entries, each annotated with reported normalized growth.
Note: the reply should be a number with no unit written.

Worked cases, answers included:
CC(C)CSc1nnc(CSCc2nc(-c3ccc(Cl)cc3)cs2)n1C ... 0.988
CCCc1cnc(N2CCN(CC(=O)N(c3ccccc3)C3CCCCC3)CC2)nc1 ... 0.97

The measured normalized growth associated with CC(C)(C)c1csc(NNC(=O)c2ccc(Cl)cc2)n1 reads 0.882

The measured normalized growth associated with CC(C)(C)c1csc(NC(=O)Nc2ccc(Cl)cc2)n1 reads 0.583

The measured normalized growth associated with COc1cc(NC(=S)Nc2ccccc2OC(F)(F)F)cc(C(F)(F)F)c1 reads 0.922

Value source: PubChem BioAssay AID1159580
